# procedure.details: clinical
# recorded.conditions: human, plasma, oral, 1.8 mg, Tmax, MEAN, low-dose regimen 1.8 mg, time after the initial dose, healthy adults, N = 13
quantity.measured: Tmax (h)
# unit: h | format: bare number

Which Tmax value belongs to COc1cc2c(c(OC)c1OC)-c1ccc(OC)c(=O)cc1[C@@H](NC(C)=O)CC2 [Colchicine] ?
1.81

###

# procedure.details: clinical
# recorded.conditions: human, plasma, oral, 1.8 mg, Cmax, MEAN, low-dose regimen 1.8 mg (2 x 0.6 mg, then 0.6 mg 1 hour later), fasting healthy adults, N = 13
quantity.measured: Cmax (ng/mL)
# unit: ng/mL | format: bare number

Which Cmax value belongs to COc1cc2c(c(OC)c1OC)-c1ccc(OC)c(=O)cc1[C@@H](NC(C)=O)CC2 ?
6.19

###

# procedure.details: clinical
# recorded.conditions: human, plasma, oral, 1.8 mg, Tmax, MEDIAN, low-dose regimen 1.8 mg, time after the initial dose, healthy adults, N = 13
quantity.measured: Tmax (h)
# unit: h | format: bare number

Which Tmax value belongs to COc1cc2c(c(OC)c1OC)-c1ccc(OC)c(=O)cc1[C@@H](NC(C)=O)CC2 [Colchicine] ?
2

###

# procedure.details: clinical
# recorded.conditions: human, in vivo, 0.6 mg
quantity.measured: Tmax (h)
# unit: h | format: bare number

Which Tmax value belongs to COc1cc2c(c(OC)c1OC)-c1ccc(OC)c(=O)cc1[C@@H](NC(C)=O)CC2 [Colchicine] ?
1

###

# procedure.details: Pharmacokinetic study of standard-dose acute gout regimen 4.8 mg over 6 hours (Example 6)
# recorded.conditions: human, in vivo, 4.8 mg, Cmax, MEDIAN, standard-dose regimen 4.8 mg over 6 hours, healthy adults, N = 15
# Description: This study was a single center, randomized, double-blind, double-dummy pharmacokinetic and exploratory ECG safety study. Those randomized to moxifloxacin received 1×400 mg tablet.
quantity.measured: Cmax

Which Cmax value belongs to COc1cc2c(c(OC)c1OC)-c1ccc(OC)c(=O)cc1[C@@H](NC(C)=O)CC2 [Colchicine] ?
6.69 ng/mL

###

# procedure.details: clinical
# recorded.conditions: human, in vivo, po, 0.6 mg
quantity.measured: half-life

Which half-life value belongs to COc1cc2c(c(OC)c1OC)-c1ccc(OC)c(=O)cc1[C@@H](NC(C)=O)CC2 ?
~5 h

###

# procedure.details: clinical
# recorded.conditions: human, in vivo, po, 0.6 mg
quantity.measured: Cmax (ng/mL)
# unit: ng/mL | format: bare number

Which Cmax value belongs to COc1cc2c(c(OC)c1OC)-c1ccc(OC)c(=O)cc1[C@@H](NC(C)=O)CC2 ?
2.71

###

# procedure.details: clinical
# recorded.conditions: human, in vivo, 0.6 mg, AUC0-τ, MEAN, 0.6 mg b.i.d. x 10 days, after last dose (Day 25), healthy adults, N = 13
quantity.measured: AUC

Which AUC value belongs to COc1cc2c(c(OC)c1OC)-c1ccc(OC)c(=O)cc1[C@@H](NC(C)=O)CC2 [Colchicine] ?
29.1 ng·h/mL

###

# procedure.details: clinical
# recorded.conditions: human, in vivo, 0.6 mg, AUC0-τ, MEDIAN, 0.6 mg b.i.d. x 10 days, after last dose (Day 25), healthy adults, N = 13
quantity.measured: AUC (ng·h/mL)
# unit: ng·h/mL | format: bare number

Which AUC value belongs to COc1cc2c(c(OC)c1OC)-c1ccc(OC)c(=O)cc1[C@@H](NC(C)=O)CC2 ?
28.5
